B1: Flag-WHRN (wild type) [mouse] / GFP-WDSUB1 (WD repeat, SAM, and U-box domain-containing protein 1) [mouse] (parent)
chain 1: MNAQLDGLSVSSSSTGSLGSAAAAAGGGGGAGLRLLSANVRQLHQALTALLSEPEREQFTHCLNAYHARRNVFDLVRTLRVLLDSPVKRRLLPMLRLVIPRSDQLLFDQYTAEGLYLPATTPYRQPAWAAPDGAGPGEVRLVSLRRAKAHEGLGFSIRGGSEHGVGIYVSLVEPGSLAEKEGLRVGDQILRVNDKSLARVTHAEAVKALKGSKKLVLSVYSAGRIPGGYVTNHIYTWVDPQGRSTSPPSSLPQPHGSTLRQREDDRRSTLHLLQSGDEKKVNLVLGDGRSLGLTIRGGAEYGLGIYITGVDPGSEAESSGLKVGDQILEVNGRSFLNILHDEAVKLLKSSRHLILTVKDVGRLPHARTTVDQTKWIASSRIGESVANSAGFPGDHTEEGTSKPGFYKGPAGSQVTLSSLGNQTRALLDDQARHLLTEQERATMMYYLAQYRGGTISVEAMVMALFELLNTHAKFSLLSEVRSIISPQDLDRFDHLVLRREIESMKARQPPGPGVGDTYSMVSYSDTGSSTGSHGTSTTVSSARERLLWLIDLMENTLDLEGTGETTQGSTNALPDVSVDDVKSPSEDLPGIKPPPPPPPLAQGHDRLLGQPRKPGREDPAPLSSAAHSGIVFSAPRNRSPPPGTAPTPGPSSAQDSPSSPIYASISHANPSSRKPLDTHLALVNQHPIGPFPRVQSPPHLKSPPAETPGAGACLPPPSPSEHPDAVGANQHFVLVEVHRPDSEPDVNEVRALPQTRTASTLSQLSDSGQTLSEDSGVDAGETEASTSGRGRQTASAKNKNGKEQPRTERTAEGANKPPGLLEPTSTLVRVRKSAATLGIAIEGGANTRQPLPRIVTIQRGGSAHNCGQLKVGHVILEVNGQTLRGKEHKEAARIIAEAFKTKERDYIDFLVTEFNVML
chain 2: MVRLIHTLADHGDDVSCCAFSAALLATCSLDKTIRLYSLSDFAELPYSPLKFHTYAVHCCCFSPSGHVLASCSTDGTTVLWSSHSGHTLTVLEQPGGSPVRVCCFSPDSAYLASGAADGSIALWNAQTYKLYRCGSVKDSSLVACAFSPDGGLFVTGSSGGDLTVWDDRMRCLHSEKAHDLGITCCSFSSQPLSGGEGLQSYQLASCGQDCEIKLWAVTITRVLGFELKYKSTLSGHCAPVLACAFSHDGKMLASGSVDKSVIIHGIGPQSVLHTLTQHTRYVTTCAFAPNTLLLATGSMDKTVNIWQFDLETPCQGSMNDPLKHFTEEWSEEDVSVWLRAQGLEDLVGIFRANNIDGKELLHLTKESLAGDLKIESLGLRSKVLRSIEELRAKMDSLSSGIPDEFICPITRELMKDPVIASDGYSYEREAMESWIHKKKRTSPMTNLALPSLVLTPNRTLKMAINRWLETHEK

Variants of: B1
Test: co-immunoprecipitation (band intensity quantified)
Conditions: with GFP-WDSUB1 (WD repeat, SAM, and U-box domain-containing protein 1) [mouse]; HEK293 cells; n = 3; parent: 1; read off a plot
observation.type: ratio to parent

Some variants with recorded ratio to parent:
mutation.list | ratio to parent
chain 1 S156E S246E | 2.6
chain 1 S37E | 1
chain 1 S156E | 1.8
chain 1 S384E | 1

[1] chain 1 S85E
[2] chain 1 S246E
IN: Compare 1 and 2 and name the one whose reported ratio to parent is smaller. Could you answer with the label of the item you picked?
OUT: 1
